Tested on: JAK1-dependent STAT6 phosphorylation downstream of IL-13 stimulation in TF-1 human erythroleukemia cells
method.description: cells
conditions.used: TF-1, read-out: IL-13-pSTAT6 IC50
experimental.readout: IC50 (µM)

Example molecules with recorded IC50:
[[record]]
molecule = "CN1CCC(N(C)C(=O)c2ccc(Nc3nc4c(C5=CCN(C(=O)C6CC6)CC5)cccn4n3)cc2)CC1"
test_value = 0.124

[[record]]
molecule = "CN1CCCC(CNC(=O)c2ccc(Nc3nc4c(N5CCC(O)(c6ccc(Cl)cc6)CC5)cccn4n3)cc2)C1 (stereo not drawn)"
test_value = 0.0579


P: O=C(CCC(F)(F)F)N1CC=C(c2cccn3nc(Nc4ccc(C(=O)N5CCC(Cc6cccnc6)C5)cc4)nc23)CC1 (stereo not drawn)
Q: CCOC(=O)N1CC=C(c2cccn3nc(Nc4ccc(C(=O)N5CC6(CCNC6)C5)cc4)nc23)CC1
R: C[C@@H]1CN(C2CCN(C(=O)c3ccc(Nc4nc5c(N6CCC(CO)(c7ccc(Cl)cc7)CC6)cccn5n4)cc3)CC2)C[C@H](C)O1
S: O=C(CCC(F)(F)F)N1CC=C(c2cccn3nc(Nc4ccc(C(=O)N5CCC(N6CCCC6)CC5)cc4)nc23)CC1
[Q] Arrange the 4 entries by IC50 so the values rise. Please, when replying, give the labels in the order that was requested.
[A] P, S, R, Q
(P: 0.0075 µM, S: 0.0205 µM, R: 0.0426 µM, Q: 0.296 µM)
